# Test system: Differentiated U937 cells
# EXPERIMENT NOTES: MTT assay (loss of cell viability)
# Assay type: cell-based, human
# EXPERIMENTAL PARAMETERS: loss of cell viability; 24 hr; 10 ug/ml
READOUT TYPE: MTT 24 hr

{"columns": ["COMPOUND", "EXPERIMENTAL SYSTEM", "MTT 24 hr"],
 "data": [
  ["CO[C@H](C)C(=O)Nc1cc(COc2ccc(NC(=O)Nc3cc(C(C)(C)C)nn3-c3ccc(C)cc3)c3ccccc23)ccn1", "Differentiated U937 cells", "+ (+ >30% at 10 ug/ml)"],
  ["COc1ccc(CN(C)CC(=O)Nc2cc(COc3ccc(NC(=O)Nc4cc(C(C)(C)C)nn4-c4ccc(C)cc4)c4ccccc34)ccn2)cc1", "Differentiated U937 cells", "− (− <30%)"],
  ["CN[C@@H](C)C(=O)Nc1cc(COc2ccc(NC(=O)Nc3cc(C(C)(C)C)nn3-c3ccc(C)cc3)c3ccccc23)ccn1", "Differentiated U937 cells", "+ (+ >30% at 10 ug/ml)"],
  ["COCCC(=O)Nc1cc(COc2ccc(NC(=O)Nc3cc(C(C)(C)C)nn3-c3ccc(C)cc3)c3ccccc23)ccn1", "Differentiated U937 cells", "− (− <30%)"],
  ["COCCNC(=O)CNC(=O)Nc1cc(COc2ccc(NC(=O)Nc3cc(C(C)(C)C)nn3-c3ccc(C)cc3)c3ccccc23)ccn1", "Differentiated U937 cells", "− (− <30%)"],
  ["CO[C@@H](C)C(=O)Nc1cc(COc2ccc(NC(=O)Nc3cc(C(C)(C)C)nn3-c3ccc(C)cc3)c3ccccc23)ccn1", "Differentiated U937 cells", "− (− <30%)"],
  ["COCCOCC(=O)Nc1cnccc1COc1ccc(NC(=O)Nc2cc(C(C)(C)C)nn2-c2ccc(C)cc2)c2ccccc12", "Differentiated U937 cells", "− (− <30%)"],
  ["Cc1ccc(-n2nc(C(C)(C)C)cc2NC(=O)Nc2ccc(Oc3ccnc(NC(=O)CS(C)(=O)=O)c3)c3ccccc23)cc1", "Differentiated U937 cells", "+ (+ >30% at 10 ug/ml)"],
  ["COCC(=O)Nc1cc(C(C)COc2ccc(NC(=O)Nc3cc(C(C)(C)C)nn3-c3ccc(C)cc3)c3ccccc23)ccn1 (stereo not shown)", "Differentiated U937 cells", "− (− <30%)"],
  ["COCCSCC(=O)Nc1cc(COc2ccc(NC(=O)Nc3cc(C(C)(C)C)nn3-c3ccc(C)cc3)c3ccccc23)ccn1", "Differentiated U937 cells", "− (− <30%)"]
]}

Exercise: I'd like to know its MTT 24 hr. The compound in question is Cc1ccc(-n2nc(C(C)(C)C)cc2NC(=O)Nc2ccc(OCc3ccnc(NC(=O)N4CCN(S(C)(=O)=O)C4=O)c3)c3ccccc23)cc1
Solution: − (− <30%)

Exercise: I'd like to know its MTT 24 hr. The compound in question is Cc1ccc(-n2nc(C(C)(C)C)cc2NC(=O)Nc2ccc(OCc3ccnc(NC(=O)C4CCOCC4)c3)c3ccccc23)cc1
Solution: + (+ >30% at 10 ug/ml)

Exercise: I'd like to know its MTT 24 hr. The compound in question is Cc1ccc(-n2nc(C(C)(C)C)cc2NC(=O)Nc2ccc(OCc3ccnc(NC(=O)N4CCOCC4)c3)c3ccccc23)cc1
Solution: − (− <30%)

// data source = patent US8299073B2
